- System: Mus musculus
- test.name: Anticonvulsant activity in CF1 albino mouse assessed as protection against maximal electroshock-induced seizures at 30 mg/kg, po after 2 hrs
- Assay type: functional
Active and inactive are the calls of the source. No cut-off for these calls is given here.
reported.metric: Activity

Study these solved cases before continuing.
Cc1ccccc1C1CC(=O)N(CCCN2CCN(c3cccc(C(F)(F)F)c3)CC2)C1=O (centres undefined) ... inactive
Cc1ccccc1C1CC(=O)N(CN2CCN(c3cccc(C(F)(F)F)c3)CC2)C1=O (centres undefined) ... 25%
Cc1ccccc1C1CC(=O)N(CCN2CCN(c3cccc(Cl)c3)CC2)C1=O (centres undefined) ... inactive
O=C1CC(c2ccccc2C(F)(F)F)C(=O)N1CN1CCN(c2cccc(Cl)c2)CC1 (centres undefined) ... 100%
O=C1CC(c2ccccc2C(F)(F)F)C(=O)N1CN1CCN(c2ccccc2F)CC1 (centres undefined) ... inactive

Below are some molecules; for each one, tell me its Activity.
1. O=C1CC(c2ccccc2C(F)(F)F)C(=O)N1CCN1CCN(c2cccc(Cl)c2)CC1 (centres undefined)
2. O=C1CC(c2ccccc2C(F)(F)F)C(=O)N1CCCN1CCN(c2cccc(C(F)(F)F)c2)CC1 (centres undefined)

A:
1: inactive; 2: inactive

Would you be so kind as to report Activity for each listed record?
1. Cc1ccccc1C1CC(=O)N(CCCN2CCN(c3cccc(Cl)c3)CC2)C1=O (centres undefined)
2. O=C1CC(c2ccccc2C(F)(F)F)C(=O)N1CN1CCN(c2ccccc2)CC1 (centres undefined)

A:
1. 25%
2. 50%
